Quick reference for TGI among some compounds
Tested on: T-47D breast
Assay: NCI tumour cell line growth inhibition, 48 h

- C=C1CCC(O)C/C1=C/C=C1\CCCC2(C)C1CCC2C(C)CCCC(C)C (centres undefined): 38.8 µM

Q. Return the recorded TGI value; entry: CC(C1CCCC1=O)C1CCCC1=O (centres undefined)
A. > 100 µM

Q. Identify measured TGI associated with "Cc1ccc(-c2c3c(nn2-c2ccc(S(=O)(=O)NC(=O)Nc4ccccc4)cc2)-c2ccccc2C3)cc1"
A. > 100 µM

Q. Report TGI for "CCOC(=O)c1sc2nc(SC)nc(Nc3ccc4c(c3)OCO4)c2c1N"
A. > 100 µM

Q. Provide measured TGI value, entry: "O=C(/C=C/c1cccc(O)c1)c1cccc(-n2cc(-c3ccc(Cl)cc3)[nH]c2=O)c1"
A. 6.03 µM

Q. Identify the reported TGI for the following entry. "O=C1C[C@@H](c2ccc(O)cc2)[C@@]2(O1)C(=O)O[C@H]([C@@H](O)CO)[C@@H]2O"
A. > 100 µM

Q. Report TGI, nothing else, for this compound: "Clc1ccc(-c2noc(CN3CCCCC3)n2)cc1"
A. > 100 µM

Q. // fetch TGI given entry CC1OC2=N[C@@H]1C(=O)N[C@@H](Cc1ccccc1)C1=N[C@H](C(=O)N[C@@H](Cc3ccccc3)C3=N[C@H](C(=O)N[C@H]2Cc2ccccc2)C(C)O3)C(C)O1 (some centres undefined)
A. > 100 µM

Q. Provide one value: measured TGI of "COc1cccc2c(Nc3ccc(C(=O)O)cc3)cc(-c3ccccc3)nc12"
A. > 100 µM

These entries and their values trace back to PubChem BioAssay (NCI).
